Tested on: Rattus norvegicus
Experiment: Gastrointestinal toxicity in albino rat assessed ulcer index at 39.23 […], po
Type: organism-based
Conditions: in vivo
MEASURED_ATTRIBUTE: UI
# output: bare number, no unit

(Q) Please give the measured UI for this compound: CC(C)Cc1ccc(C(C)C(=O)Nc2c(C#N)c3n(c2C(=O)Nc2ccccc2)CCC3)cc1 (racemic)
(A) 0

(Q) Please give the measured UI for this compound: O=C(O)CCc1nc(=O)c2c3n(c(C(=O)Nc4ccccc4)c2[nH]1)CCC3
(A) 16.66

(Q) Please give the measured UI for this compound: CC(C(=O)Nc1c(C#N)c2n(c1C(=O)Nc1ccc(Cl)cc1)CCC2)c1cccc(C(=O)c2ccccc2)c1 (racemic)
(A) 3.6

(Q) Please give the measured UI for this compound: O=C(O)CCc1nc(=O)c2c3n(c(C(=O)Nc4ccc(Cl)cc4)c2[nH]1)CCC3
(A) 15.66

(Q) Please give the measured UI for this compound: CC(C)Cc1ccc(C(C)C(=O)Nc2c(C#N)c3n(c2C(=O)Nc2ccc(Cl)cc2)CCC3)cc1 (racemic)
(A) 0

(Q) Please give the measured UI for this compound: Cc1ccc(NC(=O)c2c(NC(=O)C(C)c3ccc(CC(C)C)cc3)c(C#N)c3n2CCC3)cc1 (racemic)
(A) 3.2

(Q) Please give the measured UI for this compound: O=C(O)/C=C\c1nc(=O)c2c3n(c(C(=O)Nc4ccccc4)c2[nH]1)CCC3
(A) 17.46

(Q) Please give the measured UI for this compound: Cc1ccc(NC(=O)c2c(NC(=O)C(C)c3cccc(C(=O)c4ccccc4)c3)c(C#N)c3n2CCC3)cc1 (racemic)
(A) 3.6

(Q) Please give the measured UI for this compound: Cc1ccc(NC(=O)c2c3[nH]c(CCC(=O)O)nc(=O)c3c3n2CCC3)cc1
(A) 17.91

(Q) Please give the measured UI for this compound: O=C(c1ccccc1)c1ccc2n1CCC2C(=O)O (stereo not drawn)
(A) 11.6

(Q) Please give the measured UI for this compound: Cc1ccc(NC(=O)c2c3[nH]c(/C=C\C(=O)O)nc(=O)c3c3n2CCC3)cc1
(A) 18.3

(Q) Please give the measured UI for this compound: O=C(O)/C=C\c1nc(=O)c2c3n(c(C(=O)Nc4ccc(Cl)cc4)c2[nH]1)CCC3
(A) 17.09

(Q) Please give the measured UI for this compound: CC(C(=O)Nc1c(C#N)c2n(c1C(=O)Nc1ccccc1)CCC2)c1cccc(C(=O)c2ccccc2)c1 (racemic)
(A) 0
